System: BJ
Experiment: Cytotoxicity against human BJ cells after 72 hrs by Calcein AM assay
Value kind: IC50 (µM)

compound=COc1cc2c(cc1OC)[C@H]1[C@H]3C(=CC[C@H]1OC2=O)CCN3C tested_system=BJ value_kind=IC50 measurement_qualifier== numeric_result=20.8
compound="CO[C@@H]1C=C[C@@]23c4cc5c(cc4CN(C[C@@H]2O)[C@H]3C1)OCO5 [(+)-HAEMANTHAMINE]" tested_system=BJ value_kind=IC50 measurement_qualifier== numeric_result=2.7
compound=COc1c2c(cc3c1OCO3)[C@]13C=C[C@H](OC)C[C@H]1N(CC3)C2 tested_system=BJ value_kind=IC50 measurement_qualifier== numeric_result=26.2
compound=COc1ccc2c3c1O[C@H]1C[C@@H](O)CC[C@]31CCN(C)C2 tested_system=BJ value_kind=IC50 measurement_qualifier=> numeric_result=50
compound=O=c1[nH]c2c(O)cccc2c2cc3c(c(O)c12)OCO3 tested_system=BJ value_kind=IC50 measurement_qualifier== numeric_result=7.9
compound=COC1=CC(=O)[C@@]23CCN(Cc4c2cc2c(c4OC)OCO2)[C@@H]3C1 tested_system=BJ value_kind=IC50 measurement_qualifier== numeric_result=10.5
compound=COc1ccc2c3c1O[C@H]1C[C@@H](O)C=C[C@@]31CCN(C)C2 tested_system=BJ value_kind=IC50 measurement_qualifier=> numeric_result=50
compound=COc1ccc2c3c1O[C@H]1CC(=O)C=C[C@@]31CCN(C)C2 tested_system=BJ value_kind=IC50 measurement_qualifier=> numeric_result=50
compound=O[C@H]1[C@H]2c3cc4c(cc3CN3CCC(=C[C@@H]1O)[C@H]23)OCO4 tested_system=BJ value_kind=IC50 measurement_qualifier== numeric_result=1.9

* * *

System: K562
Test: Cytotoxicity against human K562 cells after 72 hrs by Calcein AM assay
Assay type: functional, cell-based
Conditions: K562, 72 h
molecules and their reported IC50
Value kind: IC50 (µM)

molecule=COc1cc2c(cc1OC)[C@H]1[C@H]3C(=CC[C@H]1OC2=O)CCN3C measurement_units=µM measurement_qualifier== numeric_result=19.4
molecule=COc1ccc2c3c1O[C@H]1C[C@@H](O)C=C[C@@]31CCN(C)C2 measurement_units=µM measurement_qualifier=> numeric_result=50
molecule=O[C@H]1[C@H]2c3cc4c(cc3CN3CCC(=C[C@@H]1O)[C@H]23)OCO4 measurement_units=µM measurement_qualifier== numeric_result=3.6
molecule=COc1c2c(cc3c1OCO3)[C@]13C=C[C@H](OC)C[C@H]1N(CC3)C2 measurement_units=µM measurement_qualifier=> numeric_result=50
molecule=COC1=CC(=O)[C@@]23CCN(Cc4c2cc2c(c4OC)OCO2)[C@@H]3C1 measurement_units=µM measurement_qualifier== numeric_result=4.1
molecule=O=c1[nH]c2c(O)cccc2c2cc3c(c(O)c12)OCO3 measurement_units=µM measurement_qualifier=> numeric_result=50
molecule=COc1ccc2c3c1O[C@H]1CC(=O)C=C[C@@]31CCN(C)C2 measurement_units=µM measurement_qualifier=> numeric_result=50
molecule="CO[C@@H]1C=C[C@@]23c4cc5c(cc4CN(C[C@@H]2O)[C@H]3C1)OCO5 [(+)-HAEMANTHAMINE]" measurement_units=µM measurement_qualifier== numeric_result=3.4
molecule=COc1ccc2c3c1O[C@H]1C[C@@H](O)CC[C@]31CCN(C)C2 measurement_units=µM measurement_qualifier=> numeric_result=50

* * *

System: CCRF-CEM
Assay: Cytotoxicity against human CEM cells after 72 hrs by Calcein AM assay
Assay type: functional, cell-based
pIC50: −log10 of the molar value.
Give Y when the value for pIC50 is at least 5. Give N when it is less.

molecule=COc1cc2c(cc1OC)[C@H]1[C@H]3C(=CC[C@H]1OC2=O)CCN3C qualitative_label=N
molecule=COc1ccc2c3c1O[C@H]1CC(=O)C=C[C@@]31CCN(C)C2 qualitative_label=N
molecule=COc1c2c(cc3c1OCO3)[C@]13C=C[C@H](OC)C[C@H]1N(CC3)C2 qualitative_label=N
molecule=COc1ccc2c3c1O[C@H]1C[C@@H](O)CC[C@]31CCN(C)C2 qualitative_label=N
molecule=COC1=CC(=O)[C@@]23CCN(Cc4c2cc2c(c4OC)OCO2)[C@@H]3C1 qualitative_label=Y
molecule=COc1ccc2c3c1O[C@H]1C[C@@H](O)C=C[C@@]31CCN(C)C2 qualitative_label=N
molecule="CO[C@@H]1C=C[C@@]23c4cc5c(cc4CN(C[C@@H]2O)[C@H]3C1)OCO5 [(+)-HAEMANTHAMINE]" qualitative_label=Y
molecule=CN[C@@H]1C[C@H]2O[C@@](C)([C@@H]1OC)n1c3ccccc3c3c4c(c5c6ccccc6n2c5c31)C(=O)NC4 qualitative_label=Y
molecule=O[C@H]1[C@H]2c3cc4c(cc3CN3CCC(=C[C@@H]1O)[C@H]23)OCO4 qualitative_label=Y
